Biological target: GST
Assay: SPOT array
Details: median of control spots 978
Measured Endpoint: SPOT intensity

[a] LLGRKRPVMERVVDI
[b] STPQTMRQAPKRPDA
query: Field: entry with larger SPOT intensity (options a / b ). Indicate which entry you chose by stating its label.
result: b
(b: 1, a: 0)

[a] PHNPSPFFPPPDFND
[b] RVRKTHVPASKRPSG
query: // which entry has the larger SPOT intensity value, a or b ? Could you answer with the label of the item you picked?
result: b
